Below, each entry is listed with its recorded % displacement.
Molecular target: T1, Nluc-IL23R fusion protein (human, UniProt Q5VWK5 22-629)
T1 construct: range 22-629; Stably expressed in HEK293 cells; also called hIL-23R; human IL-23R; not shown: Nanoluc protein (N1371, Promega) at the N-terminus, after a secretion signal
T1 sequence (looked up): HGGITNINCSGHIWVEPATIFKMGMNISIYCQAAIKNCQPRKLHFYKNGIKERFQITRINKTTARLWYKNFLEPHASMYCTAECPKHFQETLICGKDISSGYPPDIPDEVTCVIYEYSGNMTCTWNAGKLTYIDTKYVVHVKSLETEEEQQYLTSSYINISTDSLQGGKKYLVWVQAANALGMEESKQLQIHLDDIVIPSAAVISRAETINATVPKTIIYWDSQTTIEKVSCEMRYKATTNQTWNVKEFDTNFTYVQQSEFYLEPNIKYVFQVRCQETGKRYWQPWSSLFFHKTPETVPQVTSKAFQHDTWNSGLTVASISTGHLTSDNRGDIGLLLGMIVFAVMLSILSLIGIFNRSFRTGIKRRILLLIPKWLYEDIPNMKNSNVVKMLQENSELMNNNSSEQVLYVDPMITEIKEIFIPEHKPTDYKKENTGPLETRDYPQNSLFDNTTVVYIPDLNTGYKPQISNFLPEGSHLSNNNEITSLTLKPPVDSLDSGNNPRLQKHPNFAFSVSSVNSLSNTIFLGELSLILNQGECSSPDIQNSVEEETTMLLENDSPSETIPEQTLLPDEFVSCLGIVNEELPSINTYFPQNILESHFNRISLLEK
Assay: BRET competition vs TAMRA-labelled peptide, Nluc-IL23R membranes
*1 amine or outer side, *2 acyl side, *3 side chain or, on linkers, in order; H or OH if unused. Bridges are numbered along the chain shown (N, C = ends). [ ]: non-standard residue; d: D form. The star is where a group is joined. γDab = iso-Dab: Dab joined to preceding residue by its side-chain amine, O=C([C@H](CCN[*:1])N[*:3])[*:2]; 2‑Amino‑6‑carboxyhexanoyl = 2-aminoheptanedioic acid residue; NH(4-(3-pyridyl)butyl) = c1cncc(CCCCN*)c1; NH(2-(3-pyridyl)ethyl) = c1cncc(CCN*)c1; Phe(4-Me) = Cc1ccc(C[C@H](N)C(=O)O)cc1; 2Nal = N[C@@H](Cc1ccc2ccccc2c1)C(=O)O; AEF = NCCOc1ccc(C[C@H](N)C(=O)O)cc1; 3Pal = N[C@@H](Cc1cccnc1)C(=O)O; β3hE = N[C@@H](CCC(=O)O)CC(=O)O; Aad = N[C@@H](CCCC(=O)O)C(=O)O; αMeL = CC(C)C[C@](C)(N)C(=O)O; dOrn = NCCC[C@@H](N)C(=O)O; dDab = NCC[C@@H](N)C(=O)O; Dab = NCC[C@H](N)C(=O)O
test_readout: % displacement (%)

# binder, test_readout, endpoint_value
rows = [
    ("KIVWQE[AEF][2Nal][αMeL][β3hE]-{NH(2-(3-pyridyl)ethyl)} (lactam 1-10, N-6) [Compound 65]", "% displacement", 99),
    ("[dOrn]TVWQE[AEF][2Nal][αMeL][Aad][Dab][3Pal]-NH2 (lactam 1-10, N-6; SMILES CC(C)C[C@]1(C)NC(=O)[C@H](Cc2ccc3ccccc3c2)NC(=O)[C@H](Cc2ccc(OCCN)cc2)NC(=O)[C@@H]2CCC(=O)N[C@H](CCCNC(=O)CCC[C@@H](C(=O)N[C@@H](CCN)C(=O)N[C@@H](Cc3cccnc3)C(N)=O)NC1=O)C(=O)N[C@@H]([C@@H](C)O)C(=O)N[C@@H](C(C)C)C(=O)N[C@@H](Cc1c[nH]c3ccccc13)C(=O)N[C@@H](CCC(N)=O)C(=O)N2) [Compound 6]", "% displacement", 104),
    ("KIVWQE[AEF][2Nal][αMeL][β3hE][3Pal]-NHMe (lactam 1-10, N-6, The partner of the (1c) bridge is printed as (cyclo1)) [Compound 61]", "% displacement", 99),
    ("EWQEXXXXXX ([iso-Glu](1c)^‡(6c)^†WQE(6c)[Y(2-aminoethoxy)][2-Nal][2-Me-Leu][Dab](1c)[Dab][3-(3-Pyridyl)-Ala]-[NHMe]; (1c) [2,11] lactam; (6c) [2,7] lactam; ^† alpha-amine in bridge; ^‡ alpha-carboxylic acid in bridge) [Compound 107]", "% displacement", 97),
    ("KSVWQE[AEF][2Nal]GE-{NH(4-(3-pyridyl)butyl)} (lactam 1-10, N-6; SMILES CC(C)[C@@H]1NC(=O)[C@H](CO)NC(=O)[C@@H]2CCCCNC(=O)CC[C@@H](C(=O)NCCCCc3cccnc3)NC(=O)CNC(=O)[C@H](Cc3ccc4ccccc4c3)NC(=O)[C@H](Cc3ccc(OCCN)cc3)NC(=O)[C@H](CCC(=O)N2)NC(=O)[C@H](CCC(N)=O)NC(=O)[C@H](Cc2c[nH]c3ccccc23)NC1=O) [Compound 31]", "% displacement", 98),
    ("[dDab]TVWQD[AEF][2Nal][αMeL][2‑Amino‑6‑carboxyhexanoyl][Dab][3Pal]-NH2 (lactam 1-10, N-6) [Compound 9]", "% displacement", 103),
    ("[dDab]TVWQE[AEF][2Nal][αMeL][2‑Amino‑6‑carboxyhexanoyl][Dab][3Pal]-NH2 (lactam 1-10, N-6) [Compound 7]", "% displacement", 104),
    ("[dDab]TWQD[AEF][2Nal][αMeL][2‑Amino‑6‑carboxyhexanoyl][Dab][3Pal]-NH2 (lactam 1-9, N-5) [Compound 15]", "% displacement", 105),
    ("KTVWQE[Phe(4-Me)][2Nal][αMeL][γDab](6‑(3-pyridyl)hexanoyl) (lactam 1-C, N-6; also: iso-Dab joined to preceding residue via its side-chain amine) [Compound 25]", "% displacement", 91),
    ("EIVWQEXXXXXX (E(1c)(6c)^†IVWQE(6c)[Y(2-aminoethoxy)][2-Nal][2-Me-Leu][K(Me)](1c)[Dab][3-(3-Pyridyl)-Ala]-[NHMe]; (1c) [2,11] lactam; (6c) [2,7] lactam; ^† alpha-amine in bridge) [Compound 74]", "% displacement", 99),
]
